Species: Homo sapiens
protocol.details: Selectivity ratio of Ke for human 5-HT2A receptor to Ke for alpha1A adrenergic receptor (unknown origin)
# Ratio Ke annotations

See these solved cases before continuing.
compound | reading
COc1cc2c3c(c1OC)-c1cc4c(cc1C[C@@H]3N(C)CC2)OCO4 | 3.4
COc1cc2c3c(c1OC)-c1cc4c(cc1C[C@H]3N(C)CC2)OCO4 | 13.5
C=CCOc1ccc2c3c1-c1cc4c(cc1CC3N(C)CC2)OCO4 (stereo unspecified) | 0.06
C=CCc1cc2c3c(c1OC)-c1cc4c(cc1CC3N(C)CC2)OCO4 (stereo unspecified) | 0.85
C=CCc1cc2c3c(c1OCC1CC1)-c1cc4c(cc1CC3N(C)CC2)OCO4 (stereo unspecified) | < 0.32

Indicate the recorded Ratio Ke value for this compound: C=CCOc1c(CC=C)cc2c3c1-c1cc4c(cc1CC3N(C)CC2)OCO4 (stereo unspecified)
< 0.45

====

experimental.target: 5-hydroxytryptamine receptor 2A (Homo sapiens)
protocol.details: Antagonist activity at human 5-HT2A receptor assessed as inhibition of 5-HT-induced mobilization of internal calcium at 10 uM by FLIPR assay
Type: functional
Attribute: log10 of Ke
Short version: log10 scale, Ke, nM.

molecule | log10 of Ke
C=CCOc1ccc2c3c1-c1cc4c(cc1CC3N(C)CC2)OCO4 (stereo not given) | 1.67
C=CCc1cc2c3c(c1OC)-c1cc4c(cc1CC3N(C)CC2)OCO4 (stereo not given) | 2.69
C=CCc1cc2c3c(c1OCC1CC1)-c1cc4c(cc1CC3N(C)CC2)OCO4 (stereo not given) | 2.98
COc1cc2c3c(c1OC)-c1cc4c(cc1C[C@H]3N(C)CC2)OCO4 | 2.98
C=CCOc1c(CC=C)cc2c3c1-c1cc4c(cc1CC3N(C)CC2)OCO4 (stereo not given) | 3.14

Given the molecule COc1cc2c3c(c1OC)-c1cc4c(cc1C[C@@H]3N(C)CC2)OCO4 , write its reported log10 of Ke.
2.82

====

experimental.target: Alpha-1A adrenergic receptor (Homo sapiens)
Sequence (whole entry): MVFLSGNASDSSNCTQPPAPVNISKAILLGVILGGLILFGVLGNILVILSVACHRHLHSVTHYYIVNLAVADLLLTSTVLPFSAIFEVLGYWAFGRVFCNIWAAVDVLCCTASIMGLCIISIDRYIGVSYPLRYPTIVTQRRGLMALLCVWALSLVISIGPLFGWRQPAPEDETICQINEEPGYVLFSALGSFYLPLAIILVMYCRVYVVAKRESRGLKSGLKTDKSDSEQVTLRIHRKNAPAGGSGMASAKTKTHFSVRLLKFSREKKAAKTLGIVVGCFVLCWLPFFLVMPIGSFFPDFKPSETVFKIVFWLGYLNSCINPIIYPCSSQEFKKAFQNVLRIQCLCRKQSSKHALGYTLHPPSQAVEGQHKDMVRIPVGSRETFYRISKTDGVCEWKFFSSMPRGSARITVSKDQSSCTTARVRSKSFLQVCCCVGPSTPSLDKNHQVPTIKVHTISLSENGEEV
protocol.details: Antagonist activity at alpha1A adrenergic receptor (unknown origin) assessed as inhibition of mobilization of internal calcium at 10 uM by FLIPR assay
Assay type: functional
Please note: 1 (yes) applies when Ke is 700 nM or greater, and 0 (no) applies otherwise.

molecule | cat
COc1cc2c3c(c1OC)-c1cc4c(cc1C[C@H]3N(C)CC2)OCO4 | 0 (no)
C=CCc1cc2c3c(c1O)-c1cc4c(cc1CC3N(C)CC2)OCO4 (stereo not given) | 1 (yes)
C=CCc1cc2c3c(c1OC)-c1cc4c(cc1CC3N(C)CC2)OCO4 (stereo not given) | 0 (no)

State whether the measured Ke reaches 700 nM, counting equality as reaching it, for C=CCc1cc2c3c(c1OCC1CC1)-c1cc4c(cc1CC3N(C)CC2)OCO4 (stereo not given)
1 (yes)

Quick check: does COc1cc2c3c(c1OC)-c1cc4c(cc1C[C@@H]3N(C)CC2)OCO4 have Ke greater than or equal to 700 nM?
0 (no)

Threshold query (Ke >= 700 nM) on C=CCOc1c(OC)cc2c3c1-c1cc4c(cc1CC3OCC2)OCO4 (stereo not given)
1 (yes)

====

experimental.target: Alpha-1A adrenergic receptor (Homo sapiens) (UniProt P35348)
protocol.details: Antagonist activity at alpha1A adrenergic receptor (unknown origin) assessed as inhibition of mobilization of internal calcium at 10 uM by FLIPR assay
Format: functional
The following compounds are shown together with reported Ke values.
Note: unit nM is implicit; provide only the numeric part.

compound | measurement.type | unit.spec | reading
C=CCOc1ccc2c3c1-c1cc4c(cc1CC3N(C)CC2)OCO4 (centres undefined) | Ke | nM | 744

Let us examine a further case.
Return the recorded Ke value; entry: CN1CCc2ccc(O)c3c2C1Cc1cc2c(cc1-3)OCO2 (centres undefined)
2950

Values compiled from ChEMBL document CHEMBL3232860.
